Target: human glucagon receptor (human) (UniProt P47871)
Sequence (P47871 26-477): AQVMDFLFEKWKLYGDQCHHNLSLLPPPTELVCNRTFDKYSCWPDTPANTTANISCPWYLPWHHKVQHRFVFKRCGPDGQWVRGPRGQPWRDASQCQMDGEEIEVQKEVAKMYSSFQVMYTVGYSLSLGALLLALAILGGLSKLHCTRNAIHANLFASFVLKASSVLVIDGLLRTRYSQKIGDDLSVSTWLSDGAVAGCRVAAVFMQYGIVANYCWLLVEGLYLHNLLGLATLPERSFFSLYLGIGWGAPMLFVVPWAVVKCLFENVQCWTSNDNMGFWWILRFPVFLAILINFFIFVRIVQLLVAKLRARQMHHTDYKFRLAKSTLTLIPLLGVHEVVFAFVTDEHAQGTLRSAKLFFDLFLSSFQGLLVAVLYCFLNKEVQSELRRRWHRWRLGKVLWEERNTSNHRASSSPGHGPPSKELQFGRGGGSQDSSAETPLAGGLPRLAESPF
Test: cell-based or functional assay
Measurement type: cAMP Rel EC50 (1% HSA) (nM)

[[record]]
binder = "YXQGTFTSDXSXXLDXKAQXAFIEXLLEGGPSSGAPPPSGSEE (Aib, 4Pal, Orn, αMeL, αMeY; lysine acylated C18 diacid; amide; synthetic construct; SITE 2: note = 2-Aminoisobutyric Acid; SITE 10: note = 3-(4-Pyridyl)-L-alanine; SITE 12: note = L-ornithine; SITE 13: note = alpha-methyl-leucine; SITE 16: note = L-ornithine; SITE 17: note = Lysine is chemically modified through conjugation of the epsilon-amino group of the Lys) [Example 1064]"
result_number = 1940

[[record]]
binder = "YXQGTFTSDXSKXLDKKAQXAFIEYLIEGGPSSGAPPPSGS (non-natural residues; lipidated Lys AEEA-γGlu-C18 diacid; C-term amide; synthetic construct; SITE 2: note = 2-Aminoisobutyric Acid; SITE 10: note = 3-(4-Pyridyl)-L-alanine; SITE 13: note = alpha-methyl-leucine; SITE 17: note = Lysine is chemically modified through conjugation of the epsilon-amino group of the Lysine side chain with (2-[2-(2-Amino-ethoxy)-ethoxy]-acetyl)) [Example 908]"
result_number = 980

[[record]]
binder = "YXQGTXTSDXXIXLDXKAQXXFIEXLQEGGPSSGEPPPEGTE (synthetic construct; SITE 2: note = 2-Aminoisobutyric Acid; SITE 6: note = alpha-methyl-2-fluoro-L-phenylalanine; SITE 10: note = 3-(4-Pyridyl)-L-alanine; SITE 11: note = alpha-methyl-L-serine; SITE 13: note = alpha-methyl-leucine; SITE 16: note = L-ornithine; SITE 17: note = Lysine is chemically mo) [Example 503]"
result_number = 233

[[record]]
binder = "YXQGTXTSDXXIXLDXKAQXXFIEXLQEGGPSSGEPPPSGTE (synthetic construct; SITE 2: note = 2-Aminoisobutyric Acid; SITE 6: note = alpha-methyl-2-fluoro-L-phenylalanine; SITE 10: note = 3-(4-Pyridyl)-L-alanine; SITE 11: note = alpha-methyl-L-serine; SITE 13: note = alpha-methyl-leucine; SITE 16: note = L-ornithine; SITE 17: note = Lysine is chemically mo) [Example 504]"
result_number = 162

[[record]]
binder = "YXQGTFTSDXSQXLDKKAQXAFIEYLLEAGPSSGAPPPSGS (synthetic construct; SITE 2: note = 2-Aminoisobutyric Acid; SITE 10: note = 3-(4-Pyridyl)-L-alanine; SITE 13: note = alpha-methyl-leucine; SITE 17: note = Lysine is chemically modified through conjugation of the epsilon-amino group of the Lysine side chain with (2-[2-(2-Amino-ethoxy)-ethoxy]-acetyl)) [Example 820]"
result_number = 1270

